- assay_explanation: folding stability dG unfold (combined trypsin and chymotrypsin); higher = more stable
readout_type: folding stability dG unfold

A selection of reference data follows.
sequence_entry="SAGGMMYLKLKVKNKNGEEIEVLIEFDEKTGKAYIYNKKTGKKIEMTLEELLKQENIEIEEIEPLPEPSAGG [r13_994_TrROS_Hall]" readout_type="folding stability dG unfold" readout_value="4.07 kcal/mol"
sequence_entry="SAGGSAGGSAIADEFAEKNPNFQVEVERHTFEMTQYDPDGGWRQHRMFMISITIVPPGDPLSAGGSAGGSAG [r3_358_TrROS]" readout_type="folding stability dG unfold" readout_value="3.44 kcal/mol"
sequence_entry="SAGGSAGGSAGGPPFQIHIRDKGEERTIPVDSPDDIKELLEEKGAEIKDVHPNSGTITVKSAGGSAGGSAGG [r7_726_TrROS]" readout_type="folding stability dG unfold" readout_value="< -1 kcal/mol"

Here are 4 sequences. What values of folding stability dG unfold were reported for them?
1. SAGGMVIVVKTKEEAKKALEELLKKLFPDLKIKKIEIKEVEVEVKKKDGKKVKKKKFIVVKIEIEKESAGGS [r16_267_TrROS_Hall]
2. SPDIEIEPMPNGSYMIEVPVPPDAESIEVPFPGNGRPVTIHRDPDKIHIFFNNPEQIEEIAEAIADGKPISA [r9_515_TrROS]
3. SAGGMVQISVTEIDPETGLITIEMKFPKGVDDPAKIAAAKAEAEAFAQELEKKLGLPVKVTFTPLPESAGGS [r16_304_JUSTAS]
4. SAGGSAGGSIKPGQKVKIEIKVEEVDGKLVITAKVYNKDGKLIYEAEIVIENGKIKEVKITPPSAGGSAGGS [r12_264_TrROS_Hall]

# output
1. 3.05 kcal/mol
2. 0.15 kcal/mol
3. 1.93 kcal/mol
4. 2.9 kcal/mol

Here are 5 sequences. What values of folding stability dG unfold were reported for them?
1. SMVVERDPDGVLRVYASPEEAERIVAELKAAGLDARVEAFDPETGVWVIPVRPVPPAGLEPTPENQALNRVS [r1_78_JUSTAS]
2. SAGGSAGGSGMTEVVAEKKYPNEVILVTKEPDSYYIVKVTLKDGKVVEKENLGKISPDDPSILSAGGSAGGS [r12_154_JUSTAS]
3. SAKITFIAPGGKPIVIDIDPNYEVIEVIEFPELGVVLILLRNPETGELYAILITPPDYRPTYIELIPLDSAG [r14_311_TrMRF]
4. SMKIKSIKIEPIRIGDEEYFLIPIEVDGEEIPPEEVKRLVEELFEKLGLPLDPVLLEDPESDIVLVLARGSA [r9_717_TrMRF]
5. STITDVEIYKMPPGEEYPFPNGRKIPPGDYMIYNEDNGHYMSADQIRRILQEIEQELEKLPPPKKPENDKSA [r9_517_TrROS]

# output
1. 0.962 kcal/mol
2. -0.0617 kcal/mol
3. 4.17 kcal/mol
4. 1.48 kcal/mol
5. -0.162 kcal/mol

====

- assay_explanation: folding stability dG unfold from chymotrypsin proteolysis; higher = more stable
Field: folding stability dG unfold. Provide a value for each of the sequences that follow.

Here are 4 sequences. What values of folding stability dG unfold were reported for them?
1. SAGGSAKGLKVTFSHPDVEILSVKSYPGLGLAEVEFRYGDKLYRALVRFEPDDGGIAEATVEPVPGSAGGSA [r15_297_TrMRF]
2. SAGPKKKVEIDVHIMIPFKSWEDRELMLYYARKFAPYIARELAKQNGLPPGVDEVKVDVNIMIIPPGQMSAG [r5_436_TrROS]
3. SAGGSGTESKEYPDSKVTVTPVPLPLGDGAPVLRVTTVPKLPNGEPVTTVTLVDPDSDVVVTEETLSAGGSA [r2_484_JUSTAS]
4. SAGGSAGGSAGGSMSSSSSPLPDEDGLVTRGKSSEPSPPFTWTTTVDSSGVPSTTVTSLESAGGSAGGSAGG [r7_187_JUSTAS]

# output
2.84 kcal/mol
3.87 kcal/mol
0.925 kcal/mol
0.602 kcal/mol

Here are 4 sequences. What values of folding stability dG unfold were reported for them?
1. SSSVSVTRTRDPRTGRLVVTVSMNYEDDPEEAVEAAKALLEAAGLDVAEVLSITVDPSTGTVTIPIAVAPSA [r9_876_JUSTAS]
2. SAGGSAEEELLKAIKEALEKAKEGETVELEITLEDGSTLRITFDAENGKITVTLPNGEKLELTIEPSAGGSA [r15_977_TrROS_Hall]
3. SAGAVEKLRKELEELGYEVELEEVEDEETGKTYFILRIRNPDGEIYEIKVDKKTGEIVEIFKVDNLEELSAG [r5_938_TrROS_Hall]
4. SAGGSAGGSAGMTKIVIQYEVPPDKPPPDLEEIKKSLPGAENIEITREELPNGTWVYTVESAGGSAGGSAGG [r17_205_JUSTAS]

# output
1. 3.15 kcal/mol
2. 4.37 kcal/mol
3. 4.17 kcal/mol
4. 0.405 kcal/mol

Here are 4 sequences. What values of folding stability dG unfold were reported for them?
1. SAGGSAGGSAGKTVQIWIPPDEITPEALKSLAREGWKIKPIEIRRNPEDGWISITIELKPSAGGSAGGSAGG [r11_345_TrROS]
2. SAMKITIEVIKLPDGYYVVRITVYDKNGEKVEERELVFSSLEDLLAALKELFPDQKVTVEIRKVTKEELSAG [r14_964_TrROS_Hall]
3. SAGGSAGGKPKKVKIKIEITYNKETGVVKIKIEVEVDGKTYTIEIEVKLKPGQTIEELLKKLLESAGGSAGG [r6_20_TrROS_Hall]
4. SAGGSAGGSAGKVVLYLPGDGTAWVLKVGDGEAVLEAEPEKVEELLEKIPGTEAVPVPGLSAGGSAGGSAGG [r11_57_TrMRF]

# output
1. 0.451 kcal/mol
2. 4.14 kcal/mol
3. 4.75 kcal/mol
4. -0.0929 kcal/mol

The sequence listed as SAGGSAGGSAKKLKIPNPDGKTYEMKVEDVDPENNNVMIRNPGNGEPFHFKKSDAKRIAEELSAGGSAGGSA [r18_161_TrROS] shows folding stability dG unfold equal to -0.626 kcal/mol

====

- assay_explanation: folding stability dG unfold from trypsin proteolysis; higher = more stable
Field: folding stability dG unfold. Provide a value for each of the sequences that follow.
Answers are plain numbers, in kcal/mol.

Here are 3 sequences. What values of folding stability dG unfold were reported for them?
1. SAGGSAIKLPPGVKIEYHMHPDGYMTITIEYPNGRPIEIPMRMDPNGPREMTPDQIRDFIKELLKNSAGGSA [r15_780_TrROS]
2. SAVVSVDPATGVVTAKVKVDDTELTVTITRDPATGAWPVTFTPPGSGTPVVLDVPFTSVEEAIELAKRLSAG [r14_803_JUSTAS]
3. SAGGSAGGDKKGKPKPQWVTIMFKVPDDDLPPEEIAKEFPGVKIERSPGMYMITVPVNGKWIPFSAGGSAGG [r6_739_TrROS]

# output
1: 2.42; 2: 1.54; 3: 1.02

====

Field: folding stability dG unfold. Provide a value for each of the sequences that follow.
- assay_explanation: folding stability dG unfold from trypsin proteolysis; higher = more stable
One number for each entry, in kcal/mol.

sequence_entry="SMKTVTLNFPSLSEEEVRALAEELEATGRYRVEKIDSSTPNIKVTVLEEPPEPRPPPPPALVRDADARAASA [r9_830_JUSTAS]" readout_value=1.08
sequence_entry="SAGGSAGGSAGEMYKIKIFNKETGKELTLVFESEEEAKEALKKKFPNAKIEIEKISKEELSAGGSAGGSAGG [r11_978_TrROS_Hall]" readout_value=2.38
sequence_entry="SAGGSMIPRLEERVLEVEVDSEEEAEKLKKELKEKIEKEHPGVEVKFELRKLPNGKYLLTITVVIPILSAGG [r13_17_JUSTAS]" readout_value=2.89
sequence_entry="SMVELKITVKTPEELKKLEEAFKELGVEEVTIERKEDGTVTITVTFKESEEELEERVREALEELGFEVEPSA [r9_1003_TrROS_Hall]" readout_value=3.33
sequence_entry="SMKLKITIPLPGNNEINIEIEIKPYFDPNTKKLYFEANIKVTFTYYIPGFDKPFSFTSEFKFRFELSDDLSA [r9_140_TrMRF]" readout_value=4.46
sequence_entry="SAGGSGPMTRSITITVTPEIVRDEKGNVTATKYTVTITRSPEVSPEEVEALAAELNAAGIPTTVTPSAGGSA [r2_456_JUSTAS]" readout_value=1.23
sequence_entry="SAGGSAGGSAGGGLVPIPVNAILLDENGVPKGTFDGYPLLKAGIPLEEFAKKYGFKVETSAGGSAGGSAGGS [r10_153_TrMRF]" readout_value=-1.08
sequence_entry="SAGGSAGGGEPFVIRVELEWPNNNSIPFNIPFPPGDAITAAKNIASPLRKMGRPIKIKITDIYPSAGGSAGG [r6_721_TrROS]" readout_value=0.545

Here are 5 sequences. What values of folding stability dG unfold were reported for them?
1. SAMIEIEIEVEEREDGRLIVRVRIRNKETGEEIELELEMSREEVEKLLEELKKLFPNLEIVEVEIRELPSAG [r14_969_TrROS_Hall]
2. SAGGSAGGSAKVKIVIKNENGEEFEIEMSEEELKKKLKPGDKVKIKIEKVNGKLKITIEKESAGGSAGGSAG [r3_86_TrROS_Hall]
3. SAGGMTIVLPNGITLTFYPDRTVTATVDFPGRPLTLTLDAASLAEAVAAVERAAAEWAAPAPPVVDLSSAGG [r13_896_TrMRF]
4. SAGGSAEPPVKEIAEKLIKKSKKPIIATVVEKKKDGYLVTKVKYIPNTGKPIIKVKKITPEELKKKSAGGSA [r15_156_TrMRF]
5. SAGGTMKYDVEQKYKYPDPDGNPGGEGKHTQEVEVPPPPVIIIPPNDRELAKELAEKFGIPITPDDIASAGG [r19_315_TrROS]

# output
1. 4
2. 1.17
3. 2.56
4. 0.159
5. 0.854
